- test-name: basal S. cerevisiae growth modulation, no modifier, primary screen, OD600, strain BY4716, 24 h, basal condition (AID 1173)
- run-conditions: OD600, 24 h, higher = more signal, called active from +8 up or from −8 down
# maps each entry to its z-score
# respond with the number and nothing more

// lookup z-score for CN(C)CCCNC(=O)[C@@H]1c2ccccc2C(=O)N(CC23CC4CC(CC(C4)C2)C3)[C@H]1c1ccc(CO)cc1
-3.33

// lookup z-score for C=CC1c2cc(O)c(OC)cc2CCN1Cc1sc2ccccc2c1Cl (stereo unspecified)
-18.3

More entries:
// lookup z-score for CCCCN1CC=CC23O[C@@H]4/C=C\CCC(C)OC(=O)C4[C@H]2C(=O)N(CCCCCCO)[C@@H]3C1=O (stereo partly specified)
0.14

// lookup z-score for C=C(C(=O)CC[C@H](OC(=O)c1cccnc1)c1ccc(CO)o1)C(C)C
-1.02

// lookup z-score for C=CC[C@@H](OC(=O)Nc1ccc(OC)cc1)c1ccc(OCCO)cc1
-3.85
